run.description: Fraction unbound in Sprague-Dawley rat brain assessed as unbound fraction at 1 mg/kg, iv measured after 8 hrs by LC-MS/MS analysis
Assay type: ADME, organism-based
quantity.name: fraction unbound at 8 h
Just the number, please.

Form field fraction unbound at 8 h, entry Cc1cc(C)cc(-c2nc(NC(=O)c3cccnc3)sc2-c2ccncc2)c1 : 0.03

----------
target.under.test: UniProtKB Q61618
Sequence (Q61618 whole entry): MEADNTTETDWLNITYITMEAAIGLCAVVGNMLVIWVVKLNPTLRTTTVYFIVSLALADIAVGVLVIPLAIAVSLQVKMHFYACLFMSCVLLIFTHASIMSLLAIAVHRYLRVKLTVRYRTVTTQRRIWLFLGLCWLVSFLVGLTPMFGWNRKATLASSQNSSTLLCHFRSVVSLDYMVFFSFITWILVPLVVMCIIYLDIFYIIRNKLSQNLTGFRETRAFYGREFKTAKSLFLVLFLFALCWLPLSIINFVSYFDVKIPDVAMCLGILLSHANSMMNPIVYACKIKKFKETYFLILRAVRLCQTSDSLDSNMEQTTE
Type: cell-based, HEK293
Entries and their measured Ki follow.

• Cc1cc(I)cc(-c2nc(NC(=O)c3cccnc3)sc2-c2ccncc2)c1 = 12.4 nM

Pending compound:
Form field Ki, entry Cc1cc(Br)cc(-c2nc(NC(=O)c3cccnc3)sc2-c2ccncc2)c1 : 22.3 nM
